Values were extracted from the supplement of paper PMC9112550.

shrunken log2 fold change overview
test system: Escherichia coli TOP10; assay: shrunken log2 fold change of peptide-encoding DNA abundance (4.5 h post-induction vs induction); higher = less antimicrobial activity (less host growth inhibition); conditions: time post-induction: 4.5 h; library: site-saturation at positions 5, 18, 19, 20;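 further: peptides expressed intracellularly from a pBAD plasmid library in pooled LB shake-flask culture, induced with 0.3% L-arabinose, DNA abundance read by NGS, three biological replicates, DESeq2 with apeglm shrinkage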

Here is how some sequences turned out for shrunken log2 fold change.
seq.string: RRIRERPPRLPRPRPRPAITPRP
shrunken log2 fold change: -0.401
//
seq.string: RRIRNRPPRLPRPRPRPHHAPRP
shrunken log2 fold change: -0.0601
//
seq.string: RRIRVRPPRLPRPRPRPVISPRP
shrunken log2 fold change: -0.509

Continue with the sequence presented below.
What value of measured shrunken log2 fold change is listed for RRIRDRPPRLPRPRPRPGWHPRP ?
0.27
